- Tested on: mAb 35
- procedure text: Western blot of peptide-IChBD fusion proteins probed with mAb 35
- Type: binding, rat
- cond: Table 1, Western blot of FIG. 5, Torpedo 39MIR single mutants
recorded endpoint: mAb 35, fold-change in binding relative to Torpedo 39MIR

Give a short answer stating reported mAb 35, fold-change in binding relative to Torpedo 39MIR for SEHETRLVANLLGGGSLRWNPDDYGGIKKIRGSLDYTGK (synthetic main immunogenic region (MIR) peptide) [Mutant A70D, Torpedo 39MIR single mutant (A70D)] .
0.93 fold-change

Quickly give me recorded mAb 35, fold-change in binding relative to Torpedo 39MIR for SEHETRLVANLLGGGSLRWNPADYGGVKKIRGSLDYTGK (synthetic main immunogenic region (MIR) peptide) [Mutant I75V, Torpedo 39MIR single mutant (I75V)]
—

Answer with the recorded mAb 35, fold-change in binding relative to Torpedo 39MIR of SEHETRLVANLLGGGSLRWNPADYGGIKKIRGSLQYTGK (synthetic main immunogenic region (MIR) peptide) [Mutant D111Q, Torpedo 39MIR single mutant (D111Q)] only.
—

Let me know recorded mAb 35, fold-change in binding relative to Torpedo 39MIR for SEHETRLVANLLGGGSLRWNPADYGGIKKIRGSLDYTGH (synthetic main immunogenic region (MIR) peptide) [Mutant K115H, Torpedo 39MIR single mutant (K115H)] , thanks.
—

* * *

- Test system: mAb 198
- procedure text: Western blot of peptide-IChBD fusion proteins probed with mAb 198
- Assay type: binding, rat
- cond: Table 2, Western blot of FIG. 7, human 39MIR multiple mutants
- Source text: Chitin beads adsorbed with peptide-IChBD fusion proteins were run on an SDS-PAGE gel and transferred to a nitrocellulose membrane and assayed with the four mAbs. Chitin beads adsorbed with peptide-IChBD fusion proteins were run on an SDS-PAGE gel and transferred to a nitrocellulose membrane and assayed with the five mAbs. The Torpedo (SEQ ID NO:9) and human (SEQ ID NO:8) 39MIRs were made by joining the α(1-12), α(65-79), and α(110-115) segments of their respective a subunits with GS linkers. […]
Recorded mAb 198, fold-change in binding relative to Torpedo 39MIR, one value per entry.
Field: numeric (fold-change). Do not append units.

Below, 4 sequences whose answers are already recorded.
Query mAb 198, fold-change in binding relative to Torpedo 39MIR for SEHETRLVANLFGGGSLKWNPADYGGIKKIHGSLDYTGH (synthetic main immunogenic region (MIR) peptide) [K10N/D70A/V75I/Q111D, Human 39MIR quadruple mutant (K10N/D70A/V75I/Q111D)]
0.99

Please supply the value of reported mAb 198, fold-change in binding relative to Torpedo 39MIR for the item SEHETRLVANLLGGGSLRWNPADYGGIKKIRGSLDYTGK [Torpedo 39MIR]
1.00

Kindly indicate its recorded mAb 198, fold-change in binding relative to Torpedo 39MIR. Item: SEHETRLVANLFGGGSLKWNPDDYGGIKKIHGSLDYTGH (synthetic main immunogenic region (MIR) peptide) [K10N/V75I/Q111D, Human 39MIR triple mutant (K10N/V75I/Q111D)]
2.52

Consider the sequence SEHETRLVANLFGGGSLKWNPDDYGGIKKIHGSLQYTGH (synthetic main immunogenic region (MIR) peptide) [K10N/V75I, Human 39MIR double mutant (K10N/V75I)] . State its measured mAb 198, fold-change in binding relative to Torpedo 39MIR.
1.79

Further cases:
Tell me mAb 198, fold-change in binding relative to Torpedo 39MIR reported for SEHETRLVANLFGGGSLKWNPDDYGGVKKIHGSLDYTGH (synthetic main immunogenic region (MIR) peptide) [K10N/Q111D, Human 39MIR double mutant (K10N/Q111D)]
1.19

Supply measured mAb 198, fold-change in binding relative to Torpedo 39MIR of SEHETRLVAKLFGGGSLKWNPDDYGGIKKIHGSLDYTGH (synthetic main immunogenic region (MIR) peptide) [V75I/Q111D, Human MIR double mutant (V75I/Q111D)] in your reply.
2.71

Please list mAb 198, fold-change in binding relative to Torpedo 39MIR recorded for the sequence SEHETRLVANLFGGGSLKWNPADYGGVKKIHGSLQYTGH (synthetic main immunogenic region (MIR) peptide) [K10N/D70A, Human 39MIR double mutant (K10N/D70A)]
0.72

Give the measured mAb 198, fold-change in binding relative to Torpedo 39MIR for SEHETRLVAKLFGGGSLKWNPDDYGGVKKIHGSLQYTGH (synthetic main immunogenic region (MIR) peptide) [Human 39MIR]
0.09

Origin of the recorded values: patent US11422132B2
